Quick reference for abundance fitness among some variants
B1: 1-phosphatidylinositol 4,5-bisphosphate phosphodiesterase gamma-2, residues 772 to 827; numbered along this chain, P16885 (parent)
chain: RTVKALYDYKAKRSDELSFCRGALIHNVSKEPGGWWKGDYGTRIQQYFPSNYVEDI

Variants of: B1
Experiment: abundance fitness (aPCA) (normalised: wild type 0, dead -1); higher = more abundant; growth selection in yeast, the domain comes from the species named
Conditions: Homo sapiens

{"columns": ["alteration", "abundance fitness"],
 "data": [
  ["W36Y", -0.368],
  ["S14M", 0.024],
  ["R43E", -0.033],
  ["D15T", 0.178],
  ["K30D", -0.214],
  ["R13K", -0.267],
  ["S14Q", 0.037],
  ["K4T", -0.288],
  ["V3C", -0.267],
  ["T2Y", -0.177],
  ["N51I", -0.373],
  ["E16K", -0.822],
  ["P32D", -0.087],
  ["Q46M", 0.006],
  ["S14N", -0.316],
  ["P32F", -0.247],
  ["A11Q", -0.176],
  ["E31I", -0.174],
  ["R43S", -0.199],
  ["E31G", 0.065],
  ["D8G", -0.083],
  ["K4R", -0.205],
  ["K37A", -0.622],
  ["Y7I", -0.165],
  ["I44M", 0.019],
  ["G22Y", -0.856],
  ["N51Q", -0.129],
  ["S50L", -0.737],
  ["G34S", -0.129],
  ["R43F", -0.359],
  ["S14W", -0.334],
  ["L6Q", -0.485],
  ["R13H", -0.26],
  ["Y47M", -0.417],
  ["K4D", -0.809],
  ["Y40Q", -0.312],
  ["N51R", -0.057],
  ["K12V", -0.217],
  ["E54G", -0.276],
  ["W35E", -0.217],
  ["Y52F", 0.022],
  ["R13Q", -0.301],
  ["E31C", -0.069],
  ["R43P", -0.909],
  ["K12C", -0.705],
  ["F48M", -0.911],
  ["G33T", -0.421],
  ["G38T", -0.821],
  ["Y7N", -0.375],
  ["L17A", -0.922],
  ["R21F", -0.235],
  ["H26C", -0.087],
  ["I44D", -0.64],
  ["Y40A", -0.3],
  ["G34V", -0.032],
  ["Q46N", -0.114],
  ["D55F", -0.202],
  ["P32A", 0.056],
  ["S18P", -0.907],
  ["L24E", -0.083],
  ["E54F", -0.04],
  ["D15M", 0.185],
  ["A11S", -0.39],
  ["N51G", -0.034],
  ["D55N", -0.033],
  ["K4A", -0.259],
  ["T42V", -0.165],
  ["S50F", -0.181],
  ["A5H", -0.976],
  ["I44H", 0.026],
  ["D55Q", -0.281],
  ["E31Y", -0.05],
  ["G34P", 0.01],
  ["P32S", -0.011],
  ["D15Q", -0.214],
  ["E31D", -0.22],
  ["T2Q", -0.094],
  ["L6K", 0.01],
  ["H26T", 0.034],
  ["S18R", -0.936],
  ["Y9K", -0.816],
  ["L24A", -0.659],
  ["K30Y", 0.039],
  ["Q45T", -0.651],
  ["K30W", -0.293],
  ["A23W", -0.858],
  ["I25Q", -0.921],
  ["G41A", -0.273],
  ["F19K", -0.558],
  ["L24M", -0.207],
  ["W36E", -0.809]
]}

Reference source for all entries: the Human Domainome abundance scans (Beltran et al. 2025)
